system: tyrosine-hydroxylase positive (TH+) dopaminergic neurons; test: Rat primary midbrain neuron co-culture, alpha-synuclein oligomer challenge with co-dosed/pre-treated compound: TH+ neuron count and neurite length; assay type: cell-based; details: Rattus norvegicus, Neuron; alpha-synuclein oligomer challenge; read-out: EC50 for rescue of TH-positive neuron viability
pEC50: −log10 of the molar value.
RECORDED_ENDPOINT: pEC50

Q: Give the measured pEC50 for C[C@@H](NC(=O)Cc1ccc(C(F)(F)F)cc1)c1cc2cnn(CC(F)(F)F)c2cn1
Result: ~6.60
